Listing of recorded EC50 by entry.
measured on: Human GPR120 short form (Homo sapiens)
Construct: expressed in transfected cells
Sequence (Q5NUL3 whole entry): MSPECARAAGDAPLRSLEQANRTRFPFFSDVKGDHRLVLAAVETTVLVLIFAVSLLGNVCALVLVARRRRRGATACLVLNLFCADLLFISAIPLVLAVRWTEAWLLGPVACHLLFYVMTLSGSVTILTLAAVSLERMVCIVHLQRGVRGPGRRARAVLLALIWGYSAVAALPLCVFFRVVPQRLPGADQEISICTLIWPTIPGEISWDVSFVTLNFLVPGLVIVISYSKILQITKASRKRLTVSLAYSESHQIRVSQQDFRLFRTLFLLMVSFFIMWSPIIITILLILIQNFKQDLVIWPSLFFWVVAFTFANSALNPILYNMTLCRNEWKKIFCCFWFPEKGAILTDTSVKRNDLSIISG
method: Human GPR120 in Calcium Flux Assay, Procedure Calcium A (2500 cells/well)
Type: cell-based
readout label: EC50 (nM)

# smiles record, measured on, readout label, unit text, comparison operator, measurement
measured = [
    ("Cc1cc2c(COc3c(F)cc(CCC(=O)O)cc3F)cc(Cl)cc2s1", "Human GPR120 short form (Homo sapiens)", "EC50", "nM", ">", 5000),
    ("CCCc1cc2cc(Cl)cc(COc3cc(C)c(CCC(=O)O)cn3)c2o1", "Human GPR120 short form (Homo sapiens)", "EC50", "nM", "=", 1020),
    ("Cc1c(CCC(=O)O)ccc(OCc2cc(F)cc3cc(CCC(C)C)oc23)c1C", "Human GPR120 short form (Homo sapiens)", "EC50", "nM", "=", 2750),
    ("CCc1cc2cc(OC(F)(F)F)cc(COc3cc(CC(C)C)c(CCC(=O)O)cc3F)c2o1", "Human GPR120 short form (Homo sapiens)", "EC50", "nM", "=", 673),
    ("Cc1cc2cc3c(c(COc4ccc(CCC(=O)O)c(C)c4C)c2o1)OCCO3", "Human GPR120 short form (Homo sapiens)", "EC50", "nM", "=", 113),
    ("Cc1c(CCC(=O)O)ccc(OCc2cc(OC(F)(F)F)cc3cc(CC(F)F)oc23)c1C", "Human GPR120 short form (Homo sapiens)", "EC50", "nM", "=", 30),
    ("CCc1cc2cc(Cl)c(OC(C)C)c(COc3ccc(CCC(=O)O)c(C)c3C)c2o1", "Human GPR120 short form (Homo sapiens)", "EC50", "nM", "=", 96),
    ("Cc1cc2c(COc3ccc(CCC(=O)O)c(C)c3C)cc(Cl)cc2s1", "Human GPR120 short form (Homo sapiens)", "EC50", "nM", "=", 3200),
]

Values were extracted from patent US9562053B2.
